- Test system: DOV13 (Ovarian Carcinoma)
- assay procedure: combination Emax (second highest fraction inhibited in the dose matrix, 72 h); higher = more inhibition; extreme values may be limits of the assay
parameter measured: combination Emax

NC1(C(=O)N[C@@H](CCO)c2ccc(Cl)cc2)CCN(c2ncnc3[nH]ccc23)CC1 [Capivasertib] + CCN(CCO)CCCOc1ccc2c(Nc3cc(CC(=O)Nc4cccc(F)c4)[nH]n3)ncnc2c1 [AZD2811] (first compound max 10 µM, 7x7, partner max 1 µM)    0.544
C[C@@H](Oc1cc(-c2cnn(C3CCNCC3)c2)cnc1N)c1c(Cl)ccc(F)c1Cl [Crizotinib] + Cn1cnc2c(F)c(Nc3ccc(Br)cc3Cl)c(C(=O)NOCCO)cc21 [Selumetinib] (first compound max 10 µM, 7x7, partner max 10 µM)    0.647
COc1nnc2ccc(N3CCC(c4ccc(OCCN5CCN(C)C(=O)[C@H]5C)cc4)CC3)nn12 [AZD5153] + Cn1cnc2c(F)c(Nc3ccc(Br)cc3Cl)c(C(=O)NOCCO)cc21 [Selumetinib] (first compound max 1 µM, 7x7, partner max 10 µM)    0.482
C[C@@H](Nc1cc(F)cc(F)c1)c1cc(C(=O)N(C)C)cc2c(=O)cc(N3CCOCC3)oc12 [AZD8186] + C1CN(CCC1(C(=O)N[C@@H](CCO)C2=CC=C(C=C2)Cl)N)C3=NC=NC4=C3C=CN4 [AZD5363] (first compound max 10 µM, 7x7, partner max 10 µM)    0.28
C[C@@H](Nc1cc(F)cc(F)c1)c1cc(C(=O)N(C)C)cc2c(=O)cc(N3CCOCC3)oc12 [AZD8186] + CC(=O)c1c(C)c2cnc(Nc3ccc(N4CCNCC4)cn3)nc2n(C2CCCC2)c1=O [Palbociclib] (first compound max 10 µM, 7x7, partner max 10 µM)    0.484
CN(C)CCCOc1ccc(-c2ccc3ncc4c(c3c2)n(C2CCOCC2)c(=O)n4C)cn1 [AZD0156] + O=C(c1cc(Cc2n[nH]c(=O)c3ccccc23)ccc1F)N1CCN(C(=O)C2CC2)CC1 [Olaparib] (first compound max 3 µM, partner max 3 µM)    0.608
CN(CCO)CC[C@H](CSc1ccccc1)Nc1ccc(S(=O)(=O)NC(=O)c2ccc(N3CCC([C@@H](O)c4ccccc4-c4ccc(Cl)cc4)CC3)cc2)cc1S(=O)(=O)C(F)(F)F [AZD4320] + Nc1ccn([C@@H]2O[C@H](CO)[C@@H](O)C2(F)F)c(=O)n1 [Gemcitabine] (first compound max 1 µM, 7x7, partner max 0.3 µM)    1

Recorded values, source the supplement of paper PMC11061612.
